# procedure text: Solubility in sealing oil (hexadecane)
# Type: physicochemical
# conditions: oil or lipid, kinetic from dmso stock, room temperature (25° C.), three tests, average value±standard deviation
# reported solubility at 1 min; entries follow
Expressed in µM, but write only the number.

compound: NCC(=O)N1CCCC1C(=O)Nc1ccc2c(c1)Oc1cc(N)ccc1C21OCc2cc(S(=O)(=O)O)ccc21 (centres unmarked) [GP-sHMRG]
recorded number: 0.27

# solubility at 1 min of Cc1ccc(S(=O)(=O)O)cc1C1=C2C=CC(=N)C=C2[Si](C)(C)c2cc(NC(=O)[C@@H](N)CCC(=O)O)ccc21 [Glu-sSiR] = 0.3
